Field IC50: reported value for IRAK4 (Homo sapiens (Human)); entries drawn from several documents.
Respond with the bare value in nM.

CC(C)Nc1cc(-n2ncc3cc(C#N)cnc32)ncc1-c1cn([C@@H](C)[C@H](C)O)nn1 (single isomer, unassigned)    4

Quote IC50 reported for O=C(NC1CCC(O)CC1)c1cnc(Nc2ccc3ncsc3c2)cc1NC1CCCC1 (centres unmarked) please.
4.2

Consider the compound `CC(C)Nc1cc(-c2cnc3cc(C#N)cnn23)ncc1-c1cn(C2CCOCC2)nn1` . State its measured IC50.
2

Give the reported value of IC50 for this record: `CC(C)(O)[C@H]1CC[C@H](NC(=O)c2cnc(-c3cnc4cc(Cl)cnn34)cc2Nc2cnn(CC(F)F)c2)CC1`
2

Find the measured IC50 of `CCN[C@H]1CC[C@H](c2cn(-c3cnc(-n4ncc5cc(C#N)cnc54)cc3NC(C)C)nn2)CC1` and report it.
3

Tell us which IC50 value is on record for CC(=O)N1CCCC(n2cc(-c3cnc(-n4ncc5cc(C#N)cnc54)cc3NC(C)C)nn2)C1 (centres unmarked)
1

// Input: `CS(=O)(=O)Nc1cncc(-c2ccc3ncnc(N[C@H]4CC[C@H](N5CCOCC5)CC4)c3c2)c1` . Output its IC50 only.
24

Check the records and state IC50 for CC(O)([C@H](F)CNC(=O)c1cnc(Nc2ccc3ncsc3c2)cc1N[C@@H]1CCC[C@H]1O)C(F)(F)F (some centres unmarked)
4.5

Using the record for `CN(C)[C@H]1CC[C@H](Nc2ncnc3ccc(-c4ccncc4C#N)cc23)CC1` , state its measured IC50.
85

Return IC50 (reported value) for this compound: `Cc1nsc2nc(Nc3cnn(C4CCOCC4)c3)nc(N[C@H]3CC[C@H](N4CCC(O)CC4)CC3)c12`
1.8

Please give measured IC50 of the following entry: `CC(C)(O)[C@H](F)CNC(=O)c1cnc(-c2ccc3cc(C#N)cnn23)cc1N[C@H]1CC[C@H](c2cn(C(F)F)cn2)CC1`
1

Name the recorded IC50 of the item `CC(C)(O)[C@H](F)CNC(=O)c1cnc(-c2cnc3cc(C#N)cnn23)cc1NC1COC1` in your answer.
3

====

Across several studies, compounds have been characterized by their pIC50 on IRAK4 (Homo sapiens (Human), UniProt Q9NWZ3); a selection follows.
Value format note: pIC50 is -log10 of concentration (mol/L); just state the number.

Guide cases for pIC50, answers given:
Cc1c(-c2cncnc2)ccc2ncnc(N[C@H]3CC[C@H](N4CCOCC4)CC3)c12    6.65
Cc1cccc(C(=O)Nc2cc3cn([C@H]4CC[C@H](O)CC4)nc3cc2OCC2CC2)[n+]1[O-]    8.09
Cn1cc(-c2ccc3ncnc(N[C@H]4CC[C@H](N5CCOCC5)CC4)c3c2)c(CO)n1    6.58

Let's switch to this compound now.
Lab note: record pIC50 of `CC(C)(O)C(F)(F)CNC(=O)c1cnc(Nc2ccc3nccn3n2)cc1NC1CC1` tested on IRAK4 (Homo sapiens (Human), UniProt Q9NWZ3).
8.02

====

Field IC50: reported value for IRAK4 (Homo sapiens (Human), UniProt Q9NWZ3); entries drawn from several documents.
The answer is to be given in nM; state only the numeric part.

CC(C)(O)[C@H](F)CNC(=O)c1cnc(-c2cnc3cccnn23)cc1NC1CCOCC1    9
CC(C)Nc1cc(-n2ncc3cc(C#N)cnc32)ncc1-c1cn(CCCCCO)nn1    3
CC(C)Nc1cc(-n2ncc3cc(C#N)cnc32)ncc1-n1cc(-c2ccccc2)nn1    28
C=CC(=O)N1CC2(CC(c3nc(-c4ccc(NC(=O)c5cccc(-c6ccn[nH]6)n5)cc4)no3)C2)C1    4970
OC[C@H]1C[C@@H](Nc2nc(Nc3cccnc3)ncc2-c2nc3ccncc3s2)[C@H](O)[C@@H]1O    13

Using the record for `CC[C@@H](C)Nc1cc(-c2cnn3cc(Cl)cnc23)ncc1C(=O)NC[C@@H](F)C(C)(C)O` , state its measured IC50.
3

====

Listing of IC50 toward IRAK4 (Homo sapiens (Human), UniProt Q9NWZ3), each taken from a published source.

See these solved cases before continuing.
CC(C)Oc1cc2nc([C@]34CC[C@](C)(C3)OC4)cn2cc1C(=O)Nc1cccn(C2CC2)c1=O (single isomer, unassigned)    0.1 nM
O=C1CCc2ccc(-c3ccc4cnn(-c5cccc(C(F)(F)F)n5)c4c3)nc21    > 10000 nM
CC(C)(O)CCNC(=O)c1cnc(-c2cnn3cc(Cl)cnc23)cc1NC1COC1    8 nM
Cn1cc(Nc2nc(N[C@H]3CC[C@H](N4CCOCC4)CC3)c3nc(CO)sc3n2)cn1    ≤ 1000 nM
OCC(O)c1ccc2ncnc(N[C@H]3CC[C@H](N4CCOCC4)CC3)c2c1 (stereo partly drawn)    ≤ 5000 nM

Give reported IC50 value for `CN(C)[C@H]1CC[C@H](Oc2ncnc3sc4c(c23)[C@@H](CCC(N)=O)CCC4)CC1`
< 5000 nM

Identify measured IC50 associated with `CC(C)(O)[C@H](F)CNC(=O)c1cnc(-c2cnc3cc(Cl)cnn23)cc1Nc1cnn(CCCF)c1`
2 nM

Identify measured IC50 corresponding to CN(C)[C@H]1CC[C@H](Oc2ncnc3sc4c(c23)[C@@H](CC(O)c2ncco2)CC4)CC1 (stereo in doubt)
< 5000 nM

Write down IC50 measured for item `CC(C)(O)[C@H](F)Cn1cc(-c2cnc(-c3ccc4cc(C#N)cnn34)cc2NCC#N)nn1`
1 nM

Please give measured IC50 of the following entry: `CCCn1cc(-c2cnc(-n3ncc4cc(C#N)c(N)nc43)cc2NC2CC2)nn1`
3 nM

Return IC50 for the following compound: `CN(C)[C@H]1CC[C@H](Oc2nc(Nc3ccccc3)nc3sc4c(c23)[C@@H](CC(N)=O)CC4)CC1`
≤ 5000 nM

Specify measured IC50 for `CC(C)(O)[C@H](F)CNC(=O)c1cnc(-c2ccc3cc(C#N)cnn23)cc1N[C@H]1CC[C@H](n2nccc2C(F)F)CC1` .
2 nM

Consider the compound `Cc1nc2c(N[C@H]3CC[C@H](N4CCC5(CC4)COC5)CC3)nc(Nc3cnn(C)c3)nc2s1` . State its measured IC50.
≤ 1000 nM

Fill in reported IC50 for this entry: `C=C[C@@H](O)C[C@H]1CCc2sc3ncnc(O[C@H]4CC[C@@](N)(CC)CC4)c3c21`
< 5000 nM

Input `Cn1cc(-n2ccc3nc(Nc4cnn(C5CCCCC5)c4)nc(O[C@H]4CCOC4)c32)cn1` , output reported IC50.
100 to 1000 nM

====

Below are IC50 measurements against IRAK4 (Homo sapiens (Human)) drawn from the literature.
Give the value in nM but do not write nM after it.

Before answering, review these 10 worked examples.
CC(C)Cn1cnc(-c2cnc(-n3ncc4cc(C#N)cnc43)cc2NC(C)C)c1    12
CC(C)Nc1cc(Nc2ccc3ncccc3n2)ncc1C(=O)NC[C@@H](F)C(C)(C)O    3.6
CC(C)Nc1cc(-n2ncc3cc(C#N)cnc32)ncc1-c1cn(CCc2ccccn2)nn1    3
CC(CO)Nc1cc(Nc2nc3scnc3cc2F)ncc1C(=O)NC[C@@H](F)C(C)(C)O (stereo partly drawn)    3.3
Nc1ncc(-c2ccc3ccccc3n2)c(N[C@@H]2C[C@H](CO)[C@@H](O)[C@H]2O)n1    104
CC(C)Nc1cc(-n2ncc3cc(C#N)cnc32)ncc1-c1nnc(C(=O)N2CCOCC2)o1    11
CC(C)(O)[C@H](F)CNC(=O)c1cnc(Nc2ccc3ncsc3c2)cc1N[C@@H](c1cc(F)cc(F)c1)[C@H](O)CO    3.9
COc1cc2nn(C3CCN(CCN4CCC5(CC4)CCN(C(=O)c4ccc(OC)c(N6CCC(=O)NC6=O)c4)CC5)CC3)cc2cc1NC(=O)c1cccc(C(F)(F)F)n1    2.5
Cc1cc(Nc2ncc(-c3ccc4ccccc4n3)c(N[C@@H]3C[C@H](CO)[C@@H](O)[C@H]3O)n2)cc(C)n1    1
CC(=O)N[C@H]1CC[C@H](c2cn(-c3cnc(-c4ccc5cc(C#N)cnn45)cc3NC(C)C)nn2)CC1    2

Retrieve IC50 measured for `CCCn1cc(-c2cnc(-n3cnc4cc(C#N)cnc43)cc2Nc2cnn(CC(F)F)c2)nn1` and print it.
7

====

Listing of log10 of IC50 toward IRAK4 (Homo sapiens (Human), UniProt Q9NWZ3), each taken from a published source.
The figures below represent log10 of IC50, where IC50 is stated in µM.

Quote log10 of IC50 reported for `CC(C)Nc1c(C(=O)NCCC2(O)CC(F)(F)C2)cnc2c1[nH]c1cc(C#N)ccc12` please.
-2.60

State, in one line, measured log10 of IC50 of `O=C1CC[C@@H](COc2nccc3cc4c(=O)[nH]ccc4cc23)N1`
-0.80

Return log10 of IC50 (reported value) for this molecule: `CC(C)(O)[C@H](F)CNC(=O)c1cnc(Nc2ccc3ncsc3c2)cc1Nc1ccc(C(N)=O)cc1`
-2.62

Please report log10 of IC50 for the following molecule: `CC(C)(O)[C@H](F)CNC(=O)c1cnc(Nc2ccn3nccc3c2)cc1NC1CC1`
-2.32

Quickly give me recorded log10 of IC50 for CC[C@@H](C)Oc1nc2nc(C34CCC(CF)(C3)OC4)cn2cc1C(=O)Nc1cccn(C2CC2)c1=O (some centres unmarked)
-2.96

Annotate the molecule `CC(C)Nc1c(C(=O)NC2CCN(Cc3ccncc3)CC2)cnc2ccc(-c3cn[nH]c3)cc12` with its measured log10 of IC50.
-1.77

Give the measured log10 of IC50 for `NC(=O)c1nn(-c2cccnc2)cc1NC(=O)c1cnn2cccnc12`
-1.23

Respond only with log10 of IC50 recorded for `CC(C)(O)[C@H](F)CNC(=O)c1cnc(Nc2ccc3ncsc3c2)cc1NC1CCOCC1`
-2.57
